- experimental-protocol: Cytotoxicity assay (MTT) in RAW264.7 cells
- Assay type: cell-based, mouse
- measurement-conditions: mouse, RAW264.7 cells; 10 μM; RAW264.7, MTT, 24 h; vehicle control = 100%; mean ± S.E., n=4; read-out: Cell Viability %
Task for the reader: assign each of the following compounds its reported viability at 24 h, 10 µM.
Reply numerically in %, unit not repeated.

Query CC1(C)OC(=O)C=C[C@]2(C)[C@H]3CC[C@@]4(C)[C@H](C5=CC(=O)OC5O)OC(=O)[C@H]5O[C@]54[C@]3(C)C(=O)C[C@@H]12 (stereo partly shown) yields viability at 24 h, 10 µM of 98.9

Query COC(=O)CC(OC(C)=O)C1(C)C(C(C)(C)O)CC(=O)C2(C)C1CCC1(C)C(C3=CC(=O)OC3O)OC(=O)C3OC312 (stereo not shown) yields viability at 24 h, 10 µM of 93.2

Query COC1C=C([C@@H]2OC(=O)[C@H]3O[C@@]34[C@@]2(C)CC[C@@H]2[C@@]3(C)[C@@H](OC(C)=O)CC(=O)OC(C)(C)[C@@H]3CC(=O)[C@]24C)C(=O)O1 (stereo partly shown) [Compound 2, 21,23-dihydro-23-methoxy-21-oxonomilin] yields viability at 24 h, 10 µM of 99.1

Query CC1(C)O[C@H]2CC(=O)OC[C@]23[C@H]2CC[C@@]4(C)[C@H](C5=CC(O)OC5=O)OC(=O)[C@H]5O[C@]54[C@]2(C)C(=O)C[C@@H]13 (stereo partly shown) yields viability at 24 h, 10 µM of 92

Query CC1(C)O[C@H]2CC(=O)OC[C@]23[C@H]2CC[C@@]4(C)[C@H](c5ccoc5)OC(=O)[C@H]5O[C@]54[C@]2(C)C(=O)C[C@@H]13 yields viability at 24 h, 10 µM of 97.2

Query CC(C)(O)[C@@H]1CC(=O)[C@]2(C)[C@H](CC[C@@]3(C)[C@H](c4ccoc4)OC(=O)[C@H]4O[C@]432)[C@]12COC(=O)C[C@@H]2O yields viability at 24 h, 10 µM of 98.3

Query CC1(C)OC(=O)C[C@H](O)[C@]2(C)[C@H]3CC[C@@]4(C)[C@H](c5ccoc5)OC(=O)[C@H]5O[C@]54[C@]3(C)C(=O)C[C@@H]12 yields viability at 24 h, 10 µM of 99.3

Query COC1C=C([C@@H]2OC(=O)[C@H]3O[C@@]34[C@@]2(C)CC[C@@H]2[C@@]35COC(=O)C[C@@H]3OC(C)(C)[C@@H]5CC(=O)[C@]24C)C(=O)O1 (stereo partly shown) [Compound 4, 21,23-dihydro-23-methoxy-21-oxolimonin] yields viability at 24 h, 10 µM of 95.1

Query CC(=O)O[C@H]1CC(=O)OC(C)(C)[C@@H]2CC(=O)[C@]3(C)[C@H](CC[C@@]4(C)[C@H](C5=CC(=O)OC5O)OC(=O)[C@H]5O[C@]543)[C@@]12C (stereo partly shown) [Compound 1, 21,23-dihydro-21-hydroxy-23-oxonomilin] yields viability at 24 h, 10 µM of 104

Query COC1OC(OC)C2(C3OC(=O)C4OC45C3(C)CCC3C46COC(=O)CC4OC(C)(C)C6CC(=O)C35C)OC12 (stereo not shown) yields viability at 24 h, 10 µM of 101

Query CC1(C)O[C@H]2CC(=O)OC[C@]23[C@H]2CC[C@@]4(C)[C@H](C5=CCOC5=O)OC(=O)[C@H]5O[C@]54[C@]2(C)C(=O)C[C@@H]13 [Compound 5, 21,23-Dihydro-21-oxolimonin] yields viability at 24 h, 10 µM of 99.5

Query CC1(C)O[C@H]2CC(=O)OC[C@]23[C@H]2CC[C@@]4(C)[C@H](C5=CC(=O)OC5O)OC(=O)[C@H]5O[C@]54[C@]2(C)C(=O)C[C@@H]13 (stereo partly shown) yields viability at 24 h, 10 µM of 104

Query [H]/N=C(/NC)NCCC[C@H](N)C(=O)O [L-NMMA, N^G-monomethyl-L-arginine, acetate, reference compound] yields viability at 24 h, 10 µM of 98.5
